Some molecules, each annotated with its measured z-score.
Experimental Details: modulators of HCV replicon luciferase signal, primary screen, HCV replication inhibitor project, Huh7 cells, luciferase reporter (AID 1109);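 note: huh7 hepatoma cells harbouring a luciferase neomycin HCV replicon reporter; luciferase luminescence as measure of HCV replicon replication; test concentration not given here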
Protocol Conditions: 48 h, higher = more signal

Molecule	z-score
COc1cc(Cc2cc3c(c(CCc4ccccc4)n2)[Si](C(C)C)(C(C)C)OC3)cc(OC)c1OC	-2.14
C=C(COC)C(=O)CC[C@H](OC(=O)c1ccccc1-c1ccccc1C(=O)O)c1cccc(OCCO)c1	-3.1
O=C1O[C@@H](c2ccccc2)[C@@H](c2ccccc2)N2[C@@H](c3ccc(O)cc3)[C@]3(C(=O)Nc4ccc(C#CC5(O)CCCCCC5)cc43)[C@@H](C(=O)Nc3nc4ccccc4s3)[C@H]12	-0.56
Cc1ccc(S[C@]2(C(=O)O)CC(=O)N(Cc3cc(C(F)(F)F)cc(C(F)(F)F)c3)[C@@H]2c2ccc(CO)cc2I)cc1	-1.39
CC(C)[C@H]1NC(=O)[C@@]23C(=O)N[C@@H](Cc4ccccc4)C2[C@H](C)[C@@]2(C)O[C@H]2C3/C=C/C/C=C\CNC(=O)[C@H](C)NC1=O (stereo partly drawn)	0.631
CC(C)[Si]1(C(C)C)OCc2cc(C3CC3)nc(-c3ccccc3)c21	-0.222
CC(C)[Si](OCCCNS(=O)(=O)c1ccc(Br)cc1)(C(C)C)C(C)C	-2.89
O=C(NCc1ccccc1)[C@@]1(Cc2ccccc2)COC(c2ccc(OCCCO)cc2)=N1	-3.29

###

Assay System: Torsin-1A-interacting protein 1 (Homo sapiens) (UniProt Q5JTV8)
Sequence (Q5JTV8 whole entry, looked up): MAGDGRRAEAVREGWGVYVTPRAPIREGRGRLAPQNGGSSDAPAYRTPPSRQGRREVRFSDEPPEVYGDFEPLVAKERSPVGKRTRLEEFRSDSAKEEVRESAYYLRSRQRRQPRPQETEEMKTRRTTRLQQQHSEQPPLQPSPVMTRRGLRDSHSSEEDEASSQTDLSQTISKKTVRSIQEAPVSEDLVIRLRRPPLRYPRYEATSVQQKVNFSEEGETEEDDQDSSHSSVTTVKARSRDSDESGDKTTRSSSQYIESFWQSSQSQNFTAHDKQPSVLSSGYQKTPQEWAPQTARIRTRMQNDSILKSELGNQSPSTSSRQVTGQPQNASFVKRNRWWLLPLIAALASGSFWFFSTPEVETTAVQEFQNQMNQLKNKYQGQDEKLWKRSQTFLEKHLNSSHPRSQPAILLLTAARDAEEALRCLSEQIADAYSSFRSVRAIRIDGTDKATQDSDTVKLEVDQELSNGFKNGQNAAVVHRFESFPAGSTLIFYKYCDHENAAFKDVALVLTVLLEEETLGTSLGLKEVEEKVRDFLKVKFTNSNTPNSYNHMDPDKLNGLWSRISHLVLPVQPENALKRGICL
Experimental Details: LAP1 binders from COS7 cell lysate, primary screen, small-molecule microarray, 635/667 nm fluorescence (AID 1116)
Protocol Conditions: COS7-hLAP1 lysate binding, 635 nm fluorescence, higher = more signal
Where composite z-score equals or exceeds 0.5, the correct label is yes; where it does not, the label is no.

Compound	Assigned Category
Cc1ccc(S[C@]2(C(=O)NCCCN(C)C)CC(=O)N(Cc3ccccc3)[C@@H]2c2ccc(CO)cc2I)cc1	no
COCCCNC(=O)[C@@H]1c2ccccc2C(=O)N(CC23CC4CC(CC(C4)C2)C3)[C@H]1c1ccc(CO)cc1	yes
CCCC[C@@H]1C[C@H]1[C@@H](NC(=O)c1cccs1)c1ccc(Cl)cc1	no
C=CCc1cccc([C@@H]2[C@@H](C)CC[C@H]3C(=O)N4[C@H](c5cccc(CC=C)c5)[C@@H](C)CC[C@H]4C(=O)N23)c1	no
CN1CCC(CCCO)=CC1C1CC1 (stereo not drawn)	no
COc1ccc([Si](C)(C)[C@@H]2[C@@H](CCO)O[C@]3(C(=O)N(Cc4ccccc4)c4ccccc43)[C@H]2C)cc1	yes
CCOC(=O)C1=CC[C@@H](c2ccc(-c3ccc(OCc4ccccc4)cc3)c(OC)c2)N(S(=O)(=O)c2ccc(C)cc2)[C@H]1c1ccccc1	no
N#Cc1ccc(NN2C(C(O)CCc3ccccc3)C=CC3C(=O)N(c4ccccc4)C(=O)C32)cc1 (stereo not drawn)	yes

###

Assay System: Neurogenic locus notch homolog protein 2 (Homo sapiens) (UniProt Q04721)
Sequence (Q04721 whole entry, looked up): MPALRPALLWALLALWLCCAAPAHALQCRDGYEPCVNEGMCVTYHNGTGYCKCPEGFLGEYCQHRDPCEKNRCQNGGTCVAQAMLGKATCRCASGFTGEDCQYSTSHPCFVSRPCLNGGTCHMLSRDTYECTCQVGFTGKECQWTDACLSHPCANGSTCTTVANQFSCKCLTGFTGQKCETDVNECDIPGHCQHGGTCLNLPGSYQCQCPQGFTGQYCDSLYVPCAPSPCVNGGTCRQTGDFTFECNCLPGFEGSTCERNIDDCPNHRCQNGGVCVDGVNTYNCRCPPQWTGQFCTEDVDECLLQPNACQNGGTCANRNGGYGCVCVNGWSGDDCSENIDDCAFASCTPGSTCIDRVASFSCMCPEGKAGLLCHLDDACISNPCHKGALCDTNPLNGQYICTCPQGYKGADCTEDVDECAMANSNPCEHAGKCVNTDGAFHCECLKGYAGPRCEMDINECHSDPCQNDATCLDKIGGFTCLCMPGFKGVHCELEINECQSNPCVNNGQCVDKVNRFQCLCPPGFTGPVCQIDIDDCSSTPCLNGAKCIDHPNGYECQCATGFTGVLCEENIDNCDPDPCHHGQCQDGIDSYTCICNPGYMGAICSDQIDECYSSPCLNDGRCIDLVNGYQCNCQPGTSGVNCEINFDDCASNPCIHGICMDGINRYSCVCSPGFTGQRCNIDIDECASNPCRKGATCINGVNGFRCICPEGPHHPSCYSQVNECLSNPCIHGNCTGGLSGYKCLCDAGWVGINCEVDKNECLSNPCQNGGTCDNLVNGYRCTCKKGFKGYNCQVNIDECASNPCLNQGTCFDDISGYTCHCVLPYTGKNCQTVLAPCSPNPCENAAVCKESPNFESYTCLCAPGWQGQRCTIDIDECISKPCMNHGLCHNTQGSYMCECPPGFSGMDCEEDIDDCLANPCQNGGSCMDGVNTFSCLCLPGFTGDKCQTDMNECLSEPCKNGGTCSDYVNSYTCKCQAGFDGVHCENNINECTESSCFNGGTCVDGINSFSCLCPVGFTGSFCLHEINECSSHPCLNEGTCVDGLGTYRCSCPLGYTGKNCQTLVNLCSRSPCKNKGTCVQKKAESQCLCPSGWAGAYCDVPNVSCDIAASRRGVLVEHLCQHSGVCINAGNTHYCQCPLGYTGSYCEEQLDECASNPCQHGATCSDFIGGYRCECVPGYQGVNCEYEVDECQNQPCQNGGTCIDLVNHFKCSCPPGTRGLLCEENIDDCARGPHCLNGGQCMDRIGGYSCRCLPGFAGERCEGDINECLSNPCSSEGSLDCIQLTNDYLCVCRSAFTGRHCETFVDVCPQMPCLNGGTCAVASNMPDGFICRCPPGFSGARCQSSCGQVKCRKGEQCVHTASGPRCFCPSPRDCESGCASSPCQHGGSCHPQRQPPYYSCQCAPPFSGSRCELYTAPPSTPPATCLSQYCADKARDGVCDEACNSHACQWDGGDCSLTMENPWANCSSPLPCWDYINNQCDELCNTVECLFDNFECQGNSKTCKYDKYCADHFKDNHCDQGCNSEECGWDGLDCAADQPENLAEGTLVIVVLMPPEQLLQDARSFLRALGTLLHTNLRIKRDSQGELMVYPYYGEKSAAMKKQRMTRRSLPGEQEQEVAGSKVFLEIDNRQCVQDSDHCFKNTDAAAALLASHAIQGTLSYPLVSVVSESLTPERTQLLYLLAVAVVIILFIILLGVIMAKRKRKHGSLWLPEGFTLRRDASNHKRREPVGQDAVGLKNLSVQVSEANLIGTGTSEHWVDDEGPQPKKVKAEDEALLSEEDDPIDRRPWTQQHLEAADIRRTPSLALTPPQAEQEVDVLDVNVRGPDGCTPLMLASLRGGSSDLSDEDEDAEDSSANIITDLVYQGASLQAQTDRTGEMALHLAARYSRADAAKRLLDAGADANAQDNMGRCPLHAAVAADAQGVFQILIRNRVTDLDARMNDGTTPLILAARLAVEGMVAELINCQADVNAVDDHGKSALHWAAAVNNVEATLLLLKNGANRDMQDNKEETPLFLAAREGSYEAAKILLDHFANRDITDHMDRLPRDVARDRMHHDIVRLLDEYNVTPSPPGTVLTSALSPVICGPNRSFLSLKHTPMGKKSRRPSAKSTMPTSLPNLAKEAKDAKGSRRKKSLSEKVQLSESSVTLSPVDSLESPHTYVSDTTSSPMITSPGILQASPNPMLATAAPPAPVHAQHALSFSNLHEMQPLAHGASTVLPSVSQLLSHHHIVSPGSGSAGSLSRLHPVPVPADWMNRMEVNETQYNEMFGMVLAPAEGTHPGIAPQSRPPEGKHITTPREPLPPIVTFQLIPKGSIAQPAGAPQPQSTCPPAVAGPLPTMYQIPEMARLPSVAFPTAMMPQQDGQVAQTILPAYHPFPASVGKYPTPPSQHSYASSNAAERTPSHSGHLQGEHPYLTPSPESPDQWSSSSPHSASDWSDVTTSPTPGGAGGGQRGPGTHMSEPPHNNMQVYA
Experimental Details: Notch2 binders on small-molecule microarrays, primary screen, biochemical, small-molecule microarray, 635 nm fluorescence, stem cell growth factors (AID 1073)
Protocol Conditions: Notch2 binding, higher = more signal
Each entry falls into one class according to its composite z-score; the ranges are group A: < 0.2; group B: ≥ 0.2 and < 1; group C: ≥ 1

Molecule	Assigned Category
CCOC(=O)C[C@H]1[C@H](OC(=O)c2cc3ccccc3oc2=O)[C@@H](NC(=O)c2ccc3ccccc3c2)c2cc(OCCCO)ccc2N1C(=O)c1ccc2ccccc2n1	group C
CCCNC(=O)[C@@H]1c2ccccc2C(=O)N(Cc2cc(F)cc(C(F)(F)F)c2)[C@H]1c1ccc(CO)cc1	group C
C=C(CCCC)C(=O)CC[C@@H](OC(C)=O)c1ccccc1OCCO	group A
Cc1ccc([C@@H]2CC=C(C(=O)O)[C@H](c3ccccc3)N2S(=O)(=O)c2ccc(C)cc2)cc1	group C
CCC1=C2CN(Cc3ccccc3Br)[C@@H]([C@@H](O)Cc3ccccc3)C2C=CCC1 (stereo not given in full)	group B
COC(=O)C1=CC(c2ccc(CO)cc2)=CC(c2cccs2)N(Cc2cccc(OC(F)(F)F)c2)C=C1C(=O)OC (stereo not given)	group C
O=C(NCC(O)CO)[C@]1(Cc2ccccc2)N=C(c2ccc(OCCCO)cc2)O[C@@H]1c1ccccc1 (stereo not given in full)	group B
C=CCC(OC(C)=O)[C@@H]1[C@@H](N(Cc2cccc3ccccc23)C(=O)c2ccc(C)cc2)c2cc(OCCCO)ccc2N1C(=O)c1ccc(-c2ccccc2)cc1 (stereo not given in full)	group A
CN1C(=O)C2C=CC(C(O)c3ccc(N(C)C)cc3)N(Nc3ccc([N+](=O)[O-])cc3[N+](=O)[O-])C2C1=O (stereo not given)	group C
C[N+](C)(C)CCCC[C@@H]1NC(=O)[C@H]2C[C@@H](C(=O)NCc3ccc(F)cc3)[C@@H](c3cccc(OCCO)c3)N2C1=O	group A
O=C/C=C/c1ccc(/C=C/c2ccccc2)cc1	group A
[N-]=[N+]=NCc1ccccc1[C@H]1OC(c2ccc(OCCCO)cc2)=N[C@@]1(Cc1ccccc1N=[N+]=[N-])C(=O)NCc1ccccc1	group C
CN(C)C(=O)[C@@]1(Cc2ccccc2N=[N+]=[N-])N=C(c2ccc(OCCCO)cc2)O[C@H]1c1ccccc1CN=[N+]=[N-]	group C

###

Assay System: Neurogenic locus notch homolog protein 2 (Homo sapiens)
Experimental Details: Notch2 binders on small-molecule microarrays, primary screen, biochemical, small-molecule microarray, 635 nm fluorescence, stem cell growth factors (AID 1073)
Protocol Conditions: Notch2 binding, higher = more signal
In this section, each of the compounds is paired with its reported composite z-score.

Compound	composite z-score
Cc1ccc(S[C@]2(C(=O)NCCN3CCOCC3)CC(=O)N(C3Cc4ccccc4C3)[C@@H]2c2ccc(CO)cc2I)cc1	-1.11
C=CC[C@]1(C(=O)OC)N=C(c2ccc(OCCCO)cc2)O[C@H]1c1ccccc1CN=[N+]=[N-]	-0.543
CC1=C([C@H](O)CCc2ccccc2)[C@H](CO)[C@@H]2C(=O)N(Cc3ccccc3)C(=O)[C@@H]2C1	0.585
CC(C)[C@H]1NC(=O)[C@@]23C(=O)N[C@@H](Cc4ccccc4)C2[C@H](C)[C@@]2(C)O[C@H]2C3/C=C/C/C=C\CNC(=O)[C@H](C)NC1=O (stereo partly drawn)	-1.59
C[C@@H]1NC(=O)[C@H](Cc2ccccc2)NC(=O)[C@@]23C(=O)N[C@@H](Cc4ccccc4)C2[C@H](C)[C@@]2(C)O[C@H]2C3/C=C/C/C=C\CNC1=O (stereo partly drawn)	-0.315
CO[C@H]1O[C@H](CO)[C@@H](OC(=O)Nc2ccc3c(c2)OCO3)[C@H](OC(=O)Nc2ccccc2)[C@@H]1OC(=O)Nc1ccccc1	-0.0622
C=C(COC)/C(=C/C[C@H](OC(C)=O)c1ccc(OCCO)cc1)c1cnc2ccccc2c1	1.41
COC(=O)[C@H]1[C@@H]2COc3ccccc3[C@H]2N[C@H]1C(=O)OC	0.419

###

Entries and their composite z-score values follow.
Experimental Details: small-molecule binders of probe aLefty1, primary screen, biochemical, small-molecule microarray, 635/667 nm fluorescence (AID 1153);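 note: score merges spot fluorescence with signal-to-noise ratio from the scanned slide images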
Protocol Conditions: higher = more signal
Measurement Kind: composite z-score

Compound	Measurement Kind	Endpoint Result
COc1ccc([Si](C)(C)[C@@H]2[C@@H](CC(=O)N(CCO)Cc3ccccc3)O[C@]3(C(=O)N(Cc4cccc(N5CCC5=O)c4)c4ccccc43)[C@H]2C)cc1	composite z-score	0.122
[N-]=[N+]=NCc1ccccc1C[C@]1(C(=O)N2CCCCC2)N=C(c2ccc(OCCCO)cc2)O[C@H]1c1ccccc1CN=[N+]=[N-]	composite z-score	0.42
NC(=O)[C@H]1[C@@H]2C(=O)O[C@@H](c3ccccc3)[C@@H](c3ccccc3)N2[C@@H](c2ccc(O)cc2)[C@]12C(=O)Nc1ccc(C#CCCO)cc12	composite z-score	-0.0559
C=CCNC(=O)[C@H]1[C@@H]2C(=O)O[C@@H](c3ccccc3)[C@@H](c3ccccc3)N2[C@@H](c2ccccc2OCCO)[C@]12C(=O)N(C(=O)OCCOC)c1ccc(C#CCC(C(=O)OC)C(=O)OC)cc12	composite z-score	0.042
C=CC[C@]1(C(=O)N2CCCCC2)N=C(c2ccc(OCCCO)cc2)O[C@H]1c1ccccc1N=[N+]=[N-]	composite z-score	0.707
O=C1C2C=CC(C(O)C(c3ccccc3)c3ccccc3)N(Nc3ccc([N+](=O)[O-])cc3)C2C(=O)N1c1ccccc1 (configuration not stated)	composite z-score	0.442
[N-]=[N+]=NCc1ccccc1C[C@]1(C(N)=O)N=C(c2ccc(OCCCO)cc2)O[C@H]1c1ccccc1CN=[N+]=[N-]	composite z-score	0.71

###

Experimental Details: A549 cell viability effects, profiling panel, calcein-AM fluorescence, 48 h, basal (AID 1162); note: test concentration not given here
Protocol Conditions: higher = more signal
Response key: 1 means z-score >= 0.08; 0 means z-score < 0.08.

Compound	Assigned Category
C=C(C(=O)CC[C@H](OC(=O)c1ccccc1-c1ccccc1C(=O)O)c1ccc(CO)o1)C(C)C	0
Cc1ccc(N2C(=O)c3ccccc3[C@](C)(C(=O)O)[C@@H]2c2ccc(CO)cc2)nc1	0
Cc1ccc(N2C(=O)c3ccccc3[C@@H](C(=O)NCC(F)(F)F)[C@@H]2c2ccc(CO)cc2)nc1	1
CC(C)(C)OC(=O)CC[C@]1(C(=O)NCCN2CCOCC2)N=C(c2ccc(OCCCO)cc2)O[C@H]1c1ccccc1CN=[N+]=[N-]	1
CCCC=C(CCC)[C@@H](NC(=O)c1ccc(C(F)(F)F)cc1)c1ccccc1	0
O=C/C=C/c1ccc(/C=C/c2ccccc2)cc1	1
CN1CCC(CCCO)=CC1C1CC1 (stereo not given)	1
C[C@]1(C(=O)NCCN2CCOCC2)c2ccccc2C(=O)N(Cc2ccccc2)[C@H]1c1ccc(CO)cc1	1
Cc1ccc(S[C@]2(C(=O)NC3CC3)CC(=O)N(Cc3cc(C(F)(F)F)cc(C(F)(F)F)c3)[C@@H]2c2ccc(CO)cc2)cc1	1
CCOC(=O)C1=CCC(c2cccc3ccccc23)N(S(=O)(=O)c2ccc(C)cc2)C1 (stereo not given)	0
CC(C)(C)OC(=O)CC[C@]1(C(=O)N2CCCCC2)N=C(c2ccc(OCCCO)cc2)O[C@H]1c1ccccc1	1
CCc1cccc(NC(=O)O[C@H]2[C@H](OC(=O)Nc3ccccc3)[C@@H](OC(=O)Nc3ccccc3)[C@@H](OC)O[C@@H]2CO)c1	0
CO[C@H]1COC(=O)[C@@H](C)COC(=O)[C@H](Cc2ccccc2)NC(=O)CC=C[C@H]1C	0
COCCOC(=O)N1C(=O)[C@@]2(c3cc(C#CC4(O)CCCCCC4)ccc31)[C@H](C(=O)N1CCCCCCC1)[C@H]1C(=O)O[C@H](c3ccccc3)[C@H](c3ccccc3)N1[C@@H]2c1ccc(O)cc1	0
CC1CC/C=C\[C@H]2OC34C=CCN(Cn5nnc6ccccc65)C(=O)[C@H]3N(C(C)CO)C(=O)[C@@H]4C2C(=O)O1 (stereo not given in full)	1
O=C(NCc1ccccc1)[C@@]1(CCS(=O)(=O)c2ccccc2)COC(c2ccc(OCCCO)cc2)=N1	1
O=C1OCC=C[C@H]2OC34C=CCN(Cc5ccccc5)C(=O)[C@H]3N(CCO)C(=O)[C@@H]4[C@@H]12 (stereo not given in full)	1
CO[C@H]1COC(=O)[C@H](C)COC(=O)[C@H](Cc2ccccc2)NC(=O)CC=C[C@H]1C	1
COc1ccc(C(O)C2C=CC3C(=O)N(C)C(=O)C3N2N2CCCCC2)cc1OCc1ccccc1 (stereo not given)	1
O=C(CS)NCCCCCCNC(=O)[C@@H]1C[C@@H]2C(=O)N[C@@H](Cc3ccccc3)C(=O)N2[C@@H]1c1ccc(O)cc1	0
O=C(NCc1ccccc1)[C@@]1(Cc2ccccc2)COC(c2ccc(OCCCO)cc2)=N1	0
COCCCNC(=O)[C@@H]1c2ccccc2C(=O)N(CC23CC4CC(CC(C4)C2)C3)[C@H]1c1ccc(CO)cc1	0
COc1ccc([Si](C)(C)[C@@H]2[C@@H](CC(=O)N(CCO)Cc3ccccc3)O[C@]3(C(=O)N(Cc4cccc(N5CCC5=O)c4)c4ccccc43)[C@H]2C)cc1	0
C[N+](C)(C)CCCCNC(=O)[C@H]1C[C@H]2C(=O)NCC(=O)N2[C@H]1c1cccc(OCCO)c1	0
CC(C)CN1C(=O)[C@@]2(Cc3ccccc31)c1ccccc1C(=O)N(C1CCCCC1)[C@H]2c1ccc(CO)cc1	1
CC(c1ccccc1)C(O)C1C=CC2C(=O)N(C)C(=O)C2N1N(c1ccccc1)c1ccccc1 (stereo not given)	0
C=CCNC(=O)[C@H]1[C@@H]2C(=O)O[C@@H](c3ccccc3)[C@@H](c3ccccc3)N2[C@@H](c2ccccc2OCCO)[C@]12C(=O)N(C(=O)OCCOC)c1ccc(C#CCNC(N)=O)cc12	1
COc1cc(CO)cc(I)c1O[C@H]1C=C(C(=O)NCCO)C[C@@H](N(CC2CCCCC2)C(=O)c2cc3ccccc3oc2=O)[C@@H]1O	1
CCOC(=O)C[C@H]1[C@H](OC(=O)c2cc3ccccc3oc2=O)[C@@H](NC(=O)C2CCCCC2)c2cc(OCCCO)ccc2N1C(=O)c1ccc2ccccc2n1	0
